- Tested on: PI3Kα (p110α/p85α)(h) (Homo sapiens)
- Assay overview: Assay for phosphatidylinositol 3-kinase alpha (PI3Kα) activity, PI3K-HTRF kit
- Assay type: biochemical
- Run parameters: TR-FRET; enzyme 0.3625 μg/ml, 10 μM PIP2, 10 μM ATP
Metric: log10 of IC50 (log10 of the value in nM)
Each number you see is log10 of IC50, and the unit inside the log is nM.

Reference set (8 entries):
[[record]]
molecule = "CCOc1ccc(-c2cncc3cc(/C=C4\\SC(=O)NC4=O)oc23)cc1C(F)(F)F [Example 94]"
tested_on = "PI3Kα (p110α/p85α)(h) (Homo sapiens)"
metric = "log10 of IC50"
data_value = 0.78

[[record]]
molecule = "O=C1NC(=O)/C(=C/c2cc3cncc(C#Cc4cccc(C(F)(F)F)c4)c3o2)S1 [Example 441]"
tested_on = "PI3Kα (p110α/p85α)(h) (Homo sapiens)"
metric = "log10 of IC50"
data_value = 0.30

[[record]]
molecule = "O=C1NC(=O)/C(=C/c2cc3cncc(-c4ccc5c(c4)OCO5)c3o2)S1 [Example 36]"
tested_on = "PI3Kα (p110α/p85α)(h) (Homo sapiens)"
metric = "log10 of IC50"
data_value = 1.93

[[record]]
molecule = "CN(C)S(=O)(=O)c1ccc(-c2cncc3cc(/C=C4\\SC(=S)NC4=O)oc23)cc1OC(F)(F)F [Example 339]"
tested_on = "PI3Kα (p110α/p85α)(h) (Homo sapiens)"
metric = "log10 of IC50"
data_value = 0.90

[[record]]
molecule = "COc1ccc(C#Cc2cncc3cc(/C=C4\\SC(=O)NC4=O)oc23)cc1OC [Example 469]"
tested_on = "PI3Kα (p110α/p85α)(h) (Homo sapiens)"
metric = "log10 of IC50"
data_value = 0.30

[[record]]
molecule = "CS(=O)(=O)c1ccc(-c2cncc3cc(/C=C4\\SC(=O)NC4=O)oc23)cc1 [Example 40]"
tested_on = "PI3Kα (p110α/p85α)(h) (Homo sapiens)"
metric = "log10 of IC50"
data_value = 0.90

[[record]]
molecule = "Cc1cc(-c2cncc3cc(/C=C4\\SC(=O)NC4=O)oc23)ccc1S(=O)(=O)N1CCOCC1 [Example 307]"
tested_on = "PI3Kα (p110α/p85α)(h) (Homo sapiens)"
metric = "log10 of IC50"
data_value = 1.15

[[record]]
molecule = "Cn1cc(-c2cncc3cc(/C=C4\\SC(=O)NC4=O)oc23)cn1 [Example 12]"
tested_on = "PI3Kα (p110α/p85α)(h) (Homo sapiens)"
metric = "log10 of IC50"
data_value = 0.85


Field request: log10 of IC50 | item: COc1c(C)cc(-c2cncc3cc(/C=C4\SC(=O)NC4=O)oc23)cc1C [Example 73]
1.00

Can you check COc1ccc(-c2cncc3cc(/C=C4\SC(=O)NC4=O)oc23)cc1 [Example 25] next?
0.78

* * *

- Tested on: PI3Kγ (p120γ)(h) (Homo sapiens)
- Sequence (P48736 whole entry): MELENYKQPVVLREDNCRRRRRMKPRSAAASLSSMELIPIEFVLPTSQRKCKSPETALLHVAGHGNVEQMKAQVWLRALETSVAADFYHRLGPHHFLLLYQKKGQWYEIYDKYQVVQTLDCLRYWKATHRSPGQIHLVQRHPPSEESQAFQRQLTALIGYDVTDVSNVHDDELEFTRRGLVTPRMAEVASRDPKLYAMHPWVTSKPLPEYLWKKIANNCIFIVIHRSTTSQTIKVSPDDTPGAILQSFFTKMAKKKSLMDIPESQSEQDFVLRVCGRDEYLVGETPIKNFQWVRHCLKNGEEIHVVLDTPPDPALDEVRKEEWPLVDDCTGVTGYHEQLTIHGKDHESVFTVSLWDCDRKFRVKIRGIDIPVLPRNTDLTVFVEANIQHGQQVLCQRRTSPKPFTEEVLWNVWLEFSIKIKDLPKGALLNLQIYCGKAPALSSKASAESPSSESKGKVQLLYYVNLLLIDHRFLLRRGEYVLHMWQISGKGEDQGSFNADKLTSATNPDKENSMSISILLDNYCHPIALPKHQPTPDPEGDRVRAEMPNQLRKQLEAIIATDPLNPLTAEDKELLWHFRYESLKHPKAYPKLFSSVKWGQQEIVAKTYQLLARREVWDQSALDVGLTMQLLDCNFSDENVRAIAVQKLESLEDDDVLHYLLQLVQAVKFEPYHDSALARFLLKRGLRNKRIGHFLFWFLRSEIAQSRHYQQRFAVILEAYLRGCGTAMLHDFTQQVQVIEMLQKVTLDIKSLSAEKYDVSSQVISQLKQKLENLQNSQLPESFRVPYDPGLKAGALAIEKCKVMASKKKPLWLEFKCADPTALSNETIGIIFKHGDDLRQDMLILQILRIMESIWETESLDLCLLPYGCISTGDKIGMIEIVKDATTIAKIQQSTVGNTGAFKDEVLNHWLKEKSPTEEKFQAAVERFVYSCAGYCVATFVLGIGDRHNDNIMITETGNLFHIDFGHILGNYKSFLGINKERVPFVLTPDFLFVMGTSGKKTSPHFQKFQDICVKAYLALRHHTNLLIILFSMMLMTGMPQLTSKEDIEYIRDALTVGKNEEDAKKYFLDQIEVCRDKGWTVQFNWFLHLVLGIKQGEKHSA
- Assay overview: Assay for phosphatidylinositol 3-kinase gamma (PI3Kγ) activity, PI3K-HTRF kit
- Format: biochemical
- Run parameters: TR-FRET; enzyme 1.45 μg/ml, 10 μM PIP2, 10 μM ATP
- Procedure: The compounds of the present invention were assayed for the activity of phosphatidylinositol 3-kinase gamma (PI3Kγ) by using a PI3K enzyme-homogenous time resolved fluorescence (PI3K-HTRF) kit, which is available from Upstate (Millipore Co, Billerica, Mass., USA). […]
Form field: IC50 (one value per entry).
Field: numeric (nM). Do not append units.

Example molecules with recorded IC50:
[[record]]
record_smiles = "CCOc1ccc(-c2cncc3cc(/C=C4\\SC(=O)NC4=O)oc23)cc1Cl"
unit_spec = "nM"
data_value = 12

[[record]]
record_smiles = "CSc1ccc(-c2cncc3cc(/C=C4\\SC(=O)NC4=O)oc23)cc1"
unit_spec = "nM"
data_value = 9

[[record]]
record_smiles = "COc1ccc(-c2cncc3cc(/C=C4\\SC(=O)NC4=O)oc23)cn1"
unit_spec = "nM"
data_value = 6

[[record]]
record_smiles = "O=C1NC(=O)/C(=C/c2cc3cncc(C#Cc4ccccc4C(F)(F)F)c3o2)S1"
unit_spec = "nM"
data_value = 23


# context switch: different molecule, same IC50
GET /values?readout=IC50&item= "COc1ccc(NC(=O)c2cncc3cc(/C=C4\SC(=S)NC4=O)oc23)cc1"
51

* * *

- Tested on: PI3Kα (p110α/p85α)(h) (Homo sapiens)
- Assay overview: Assay for phosphatidylinositol 3-kinase alpha (PI3Kα) activity, PI3K-HTRF kit
- Type: biochemical
- Run parameters: TR-FRET; enzyme 0.3625 μg/ml, 10 μM PIP2, 10 μM ATP
IC50 values, listed per item
Lab book: enter the figure in nM, no units written.

Below are worked cases with known answers.
[[record]]
compound = "O=C1NC(=S)S/C1=C\\c1cc2cncc(-c3ccc(F)nc3)c2o1 [Example 153]"
metric = "IC50"
data_value = 10

[[record]]
compound = "Cc1cc(-c2cncc3cc(/C=C4\\SC(=S)NC4=O)oc23)cc(C)c1OC(C)C [Example 197]"
metric = "IC50"
data_value = 121

[[record]]
compound = "COc1ccc(-c2cncc3cc(/C=C4\\SC(=O)NC4=O)oc23)cc1OC [Example 33]"
metric = "IC50"
data_value = 8

[[record]]
compound = "COC(=O)c1ccc(C#Cc2cncc3cc(/C=C4\\SC(=O)NC4=O)oc23)cc1 [Example 532]"
metric = "IC50"
data_value = 5

[[record]]
compound = "COc1c(C)cc(-c2cncc3cc(/C=C4\\SC(=S)NC4=O)oc23)cc1C [Example 196]"
metric = "IC50"
data_value = 10

[[record]]
compound = "O=C1NC(=O)/C(=C/c2cc3cncc(C#Cc4ccccc4C(F)(F)F)c3o2)S1 [Example 526]"
metric = "IC50"
data_value = 6

[[record]]
compound = "CN1CCN(Cc2ccc(-c3cncc4cc(/C=C5\\SC(=O)NC5=O)oc34)cc2)CC1 [Example 134]"
metric = "IC50"
data_value = 95

[[record]]
compound = "CC(C)NS(=O)(=O)c1c(Cl)cc(-c2cncc3cc(/C=C4\\SC(=S)NC4=O)oc23)cc1Cl [Example 345]"
metric = "IC50"
data_value = 11


Please give the measured IC50 for this compound: CSc1ccc(-c2cncc3cc(/C=C4\SC(=O)NC4=O)oc23)cn1 [Example 41]
12

For COc1ccc(NC(=O)c2cncc3cc(/C=C4\SC(=S)NC4=O)oc23)cc1 [Example 425] then?
11

What would you report for O=C1NC(=O)/C(=C/c2cc3cncc(C#Cc4ccc(OC(F)(F)F)cc4)c3o2)S1 [Example 533] ?
14

Would you kindly repeat that for COc1ncc(-c2cncc3cc(/C=C4\SC(=S)NC4=O)oc23)cc1C#N [Example 328] ?
15

Lookup Cc1cc(-c2cncc3cc(/C=C4\SC(=S)NC4=O)oc23)cnc1F [Example 195]
2

Same question, O=C1NC(=O)/C(=C/c2cc3cncc(C#CC4CCCC4)c3o2)S1 [Example 435] this time
58

* * *

- Tested on: PI3K β (p110β/p85α)(h) (Homo sapiens)
- Sequence (P42338 whole entry): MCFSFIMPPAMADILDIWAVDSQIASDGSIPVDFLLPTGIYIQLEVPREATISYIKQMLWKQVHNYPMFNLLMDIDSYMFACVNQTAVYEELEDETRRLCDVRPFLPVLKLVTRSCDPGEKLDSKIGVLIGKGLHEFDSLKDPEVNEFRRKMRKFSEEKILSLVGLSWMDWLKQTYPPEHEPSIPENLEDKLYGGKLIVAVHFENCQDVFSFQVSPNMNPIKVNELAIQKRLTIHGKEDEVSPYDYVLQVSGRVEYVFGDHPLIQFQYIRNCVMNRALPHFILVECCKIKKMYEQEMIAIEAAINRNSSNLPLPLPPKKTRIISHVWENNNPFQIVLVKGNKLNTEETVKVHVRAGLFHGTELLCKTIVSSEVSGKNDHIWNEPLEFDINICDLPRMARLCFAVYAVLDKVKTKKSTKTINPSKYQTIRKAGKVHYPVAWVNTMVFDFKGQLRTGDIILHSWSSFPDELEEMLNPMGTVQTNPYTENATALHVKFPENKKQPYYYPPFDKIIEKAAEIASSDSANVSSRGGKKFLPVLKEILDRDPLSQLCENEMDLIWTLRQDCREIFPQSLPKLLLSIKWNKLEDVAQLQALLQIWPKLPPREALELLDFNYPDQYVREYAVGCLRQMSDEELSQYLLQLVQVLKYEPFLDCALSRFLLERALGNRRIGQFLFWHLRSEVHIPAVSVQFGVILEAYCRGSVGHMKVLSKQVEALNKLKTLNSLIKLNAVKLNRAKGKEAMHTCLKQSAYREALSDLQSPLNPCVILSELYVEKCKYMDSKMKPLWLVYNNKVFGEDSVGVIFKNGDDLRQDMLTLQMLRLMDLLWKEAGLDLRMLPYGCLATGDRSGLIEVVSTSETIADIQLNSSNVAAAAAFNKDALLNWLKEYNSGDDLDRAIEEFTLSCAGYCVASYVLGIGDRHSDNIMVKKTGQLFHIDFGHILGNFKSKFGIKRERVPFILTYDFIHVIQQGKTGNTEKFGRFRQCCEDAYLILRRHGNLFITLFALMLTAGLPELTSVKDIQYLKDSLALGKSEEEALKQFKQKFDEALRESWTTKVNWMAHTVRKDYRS
- Sequence (P27986 whole entry partner): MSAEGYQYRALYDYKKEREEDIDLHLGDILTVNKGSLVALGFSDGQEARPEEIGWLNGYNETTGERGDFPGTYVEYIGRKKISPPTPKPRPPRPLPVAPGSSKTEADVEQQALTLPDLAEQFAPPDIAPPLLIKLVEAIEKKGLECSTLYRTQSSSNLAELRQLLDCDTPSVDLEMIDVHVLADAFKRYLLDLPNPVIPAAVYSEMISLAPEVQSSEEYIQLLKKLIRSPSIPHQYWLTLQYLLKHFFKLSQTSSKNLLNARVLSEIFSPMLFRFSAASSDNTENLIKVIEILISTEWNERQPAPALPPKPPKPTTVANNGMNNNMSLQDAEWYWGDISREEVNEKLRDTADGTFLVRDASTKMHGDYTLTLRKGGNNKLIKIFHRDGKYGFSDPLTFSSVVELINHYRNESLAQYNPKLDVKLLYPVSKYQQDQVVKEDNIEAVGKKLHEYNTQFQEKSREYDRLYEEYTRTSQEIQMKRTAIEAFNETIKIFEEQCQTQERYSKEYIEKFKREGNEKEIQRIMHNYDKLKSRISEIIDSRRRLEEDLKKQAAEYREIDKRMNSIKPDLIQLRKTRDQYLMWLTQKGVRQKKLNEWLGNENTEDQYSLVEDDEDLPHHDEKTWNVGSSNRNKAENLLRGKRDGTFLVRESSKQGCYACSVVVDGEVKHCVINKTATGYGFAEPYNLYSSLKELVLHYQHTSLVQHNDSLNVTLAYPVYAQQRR
- Assay overview: Assay for phosphatidylinositol 3-kinase beta (PI3Kβ) activity, PI3K-HTRF kit
- Type: biochemical
- Run parameters: TR-FRET; enzyme 0.725 μg/ml, 10 μM PIP2, 10 μM ATP
A collection of molecules and their measured IC50
Report as a plain number; the unit nM is understood.

Before answering, review these 5 worked examples.
[[record]]
molecule = "O=C1NC(=S)S/C1=C\\c1cc2cncc(C(=O)NCc3ccc(Cl)cc3)c2o1 [Example 427]"
data_value = 250

[[record]]
molecule = "O=C1NC(=O)/C(=C/c2cc3cncc(-c4cccc(CN5CCCCC5)c4)c3o2)S1 [Example 132]"
data_value = 337

[[record]]
molecule = "O=C1NC(=O)/C(=C/c2cc3cncc(-c4cccc(OCC(F)(F)F)c4)c3o2)S1 [Example 110]"
data_value = 293

[[record]]
molecule = "O=C1NC(=O)/C(=C/c2cc3cncc(-c4ccc(O)nc4)c3o2)S1 [Example 11]"
data_value = 48

[[record]]
molecule = "O=C1NC(=O)/C(=C/c2cc3cncc(-c4cccc(NS(=O)(=O)c5ccccc5)c4)c3o2)S1 [Example 141]"
data_value = 23


Below: the item to evaluate.
# get_value(readout='IC50', item= Cc1cc(-c2cncc3cc(/C=C4\SC(=O)NC4=O)oc23)ccc1S(=O)(=O)NC(C)(C)C [Example 310] )
1940

* * *

- Tested on: PI3Kδ (p110δ/p85α)(h) (Homo sapiens)
- Sequence (O00329 whole entry): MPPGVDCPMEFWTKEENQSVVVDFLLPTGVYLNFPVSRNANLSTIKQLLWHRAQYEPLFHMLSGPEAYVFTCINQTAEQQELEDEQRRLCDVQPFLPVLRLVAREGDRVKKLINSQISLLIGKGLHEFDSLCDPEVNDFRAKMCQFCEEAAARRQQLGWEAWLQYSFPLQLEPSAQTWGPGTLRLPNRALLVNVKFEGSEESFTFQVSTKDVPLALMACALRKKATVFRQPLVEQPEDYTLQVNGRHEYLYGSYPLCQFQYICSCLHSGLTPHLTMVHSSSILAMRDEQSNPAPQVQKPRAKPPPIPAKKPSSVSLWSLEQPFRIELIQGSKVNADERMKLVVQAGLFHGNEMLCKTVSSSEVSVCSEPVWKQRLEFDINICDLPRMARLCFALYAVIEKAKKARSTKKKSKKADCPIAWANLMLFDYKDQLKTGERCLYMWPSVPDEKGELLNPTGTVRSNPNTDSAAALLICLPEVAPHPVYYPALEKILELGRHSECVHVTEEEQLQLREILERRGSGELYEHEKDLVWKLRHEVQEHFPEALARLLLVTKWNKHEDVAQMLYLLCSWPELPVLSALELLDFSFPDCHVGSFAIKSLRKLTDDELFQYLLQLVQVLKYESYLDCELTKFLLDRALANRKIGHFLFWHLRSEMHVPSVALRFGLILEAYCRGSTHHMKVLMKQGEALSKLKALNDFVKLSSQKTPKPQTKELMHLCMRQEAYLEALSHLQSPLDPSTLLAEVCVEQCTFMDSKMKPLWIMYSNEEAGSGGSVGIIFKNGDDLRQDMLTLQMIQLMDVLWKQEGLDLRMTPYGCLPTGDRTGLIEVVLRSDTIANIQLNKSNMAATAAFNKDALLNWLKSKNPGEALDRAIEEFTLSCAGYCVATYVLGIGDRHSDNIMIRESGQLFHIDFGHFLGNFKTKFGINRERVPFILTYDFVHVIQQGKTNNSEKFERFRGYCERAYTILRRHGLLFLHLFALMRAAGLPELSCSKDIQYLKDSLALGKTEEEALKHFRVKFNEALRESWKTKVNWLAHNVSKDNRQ
- Sequence (P27986 whole entry partner): as the sequence (P27986 whole entry partner) above
- Assay overview: Assay for phosphatidylinositol 3-kinase delta (PI3Kδ) activity, PI3K-HTRF kit
- Format: biochemical
- Run parameters: TR-FRET; enzyme 0.725 μg/ml, 10 μM PIP2, 10 μM ATP
Simple rule here: IC50 less than 500 nM is fulfilled, otherwise not fulfilled.

Below are worked cases with known answers.
[[record]]
record_smiles = "O=C1NC(=S)S/C1=C\\c1cc2cncc(-c3cc(Cl)c(S(=O)(=O)N4CCOCC4)c(Cl)c3)c2o1"
tested_on = "PI3Kδ (p110δ/p85α)(h) (Homo sapiens)"
qualitative_label = "fulfilled"

[[record]]
record_smiles = "COc1cc(C#Cc2cncc3cc(/C=C4\\SC(=O)NC4=O)oc23)cc(OC)c1"
tested_on = "PI3Kδ (p110δ/p85α)(h) (Homo sapiens)"
qualitative_label = "not fulfilled"

[[record]]
record_smiles = "O=C1NC(=S)S/C1=C\\c1cc2cncc(-c3ccc(F)nc3)c2o1"
tested_on = "PI3Kδ (p110δ/p85α)(h) (Homo sapiens)"
qualitative_label = "fulfilled"

[[record]]
record_smiles = "CCOC(C#Cc1cncc2cc(/C=C3\\SC(=S)NC3=O)oc12)OCC"
tested_on = "PI3Kδ (p110δ/p85α)(h) (Homo sapiens)"
qualitative_label = "fulfilled"

[[record]]
record_smiles = "COc1cc(-c2cncc3cc(/C=C4\\SC(=S)NC4=O)oc23)cc(Cl)c1O"
tested_on = "PI3Kδ (p110δ/p85α)(h) (Homo sapiens)"
qualitative_label = "not fulfilled"

[[record]]
record_smiles = "CN1CCN(Cc2ccc(-c3cncc4cc(/C=C5\\SC(=O)NC5=O)oc34)cc2)CC1"
tested_on = "PI3Kδ (p110δ/p85α)(h) (Homo sapiens)"
qualitative_label = "fulfilled"

[[record]]
record_smiles = "O=C1NC(=O)/C(=C/c2cc3cncc(C#Cc4ccccc4)c3o2)S1"
tested_on = "PI3Kδ (p110δ/p85α)(h) (Homo sapiens)"
qualitative_label = "not fulfilled"

[[record]]
record_smiles = "COc1ncc(-c2cncc3cc(/C=C4\\SC(=S)NC4=O)oc23)cc1C#N"
tested_on = "PI3Kδ (p110δ/p85α)(h) (Homo sapiens)"
qualitative_label = "not fulfilled"

[[record]]
record_smiles = "O=C1NC(=O)/C(=C/c2cc3cncc(-c4ccc(S(=O)(=O)N5CCCCC5)cc4)c3o2)S1"
tested_on = "PI3Kδ (p110δ/p85α)(h) (Homo sapiens)"
qualitative_label = "not fulfilled"

[[record]]
record_smiles = "CN(C)S(=O)(=O)c1ccc(-c2cncc3cc(/C=C4\\SC(=S)NC4=O)oc23)cc1OC(F)(F)F"
tested_on = "PI3Kδ (p110δ/p85α)(h) (Homo sapiens)"
qualitative_label = "fulfilled"


Below 500 nM on IC50? Entry "COc1ccc(C#Cc2cncc3cc(/C=C4\SC(=O)NC4=O)oc23)cc1OC"
fulfilled

Now give it for "O=C1NC(=O)/C(=C/c2cc3cncc(-c4cccc(OCc5ccccc5)c4)c3o2)S1" too.
not fulfilled

Okay, and "O=C1NC(=O)/C(=C/c2cc3cncc(C#Cc4cccc(C(F)(F)F)c4)c3o2)S1" ?
not fulfilled

Would you kindly repeat that for "O=C1NC(=O)/C(=C/c2cc3cncc(-c4ccc(S(=O)(=O)NCCO)cc4)c3o2)S1" ?
not fulfilled

Same question for "COc1ccc(NC(=O)c2cncc3cc(/C=C4\SC(=S)NC4=O)oc23)cc1" please.
not fulfilled

Continue with "Cc1ccccc1C#Cc1cncc2cc(/C=C3\SC(=S)NC3=O)oc12"
not fulfilled

Okay, and "Cc1cc(-c2cncc3cc(/C=C4\SC(=S)NC4=O)oc23)cnc1F" ?
not fulfilled

For "COc1ccc(-c2cncc3cc(/C=C4\SC(=S)NC4=O)oc23)cc1F" then?
fulfilled

Subsequent entry: "COc1ccccc1C#Cc1cncc2cc(/C=C3\SC(=S)NC3=O)oc12"
not fulfilled

Lookup "Nc1ccc(-c2cncc3cc(/C=C4\SC(=S)NC4=O)oc23)cc1C(F)(F)F"
not fulfilled

Moving on to "CSc1ccc(-c2cncc3cc(/C=C4\SC(=O)NC4=O)oc23)cc1"
not fulfilled

Subsequent entry: "COc1ccc(-c2cncc3cc(/C=C4\SC(=O)NC4=O)oc23)cc1C(F)(F)F"
not fulfilled

Continue with "COC(=O)c1ccccc1C#Cc1cncc2cc(/C=C3\SC(=S)NC3=O)oc12"
fulfilled

// repeat for "O=C1NC(=O)/C(=C/c2cc3cncc(-c4cc5ccccc5s4)c3o2)S1" and report
fulfilled

Can you handle "O=C1NC(=O)/C(=C/c2cc3cncc(C#Cc4ccsc4)c3o2)S1" next?
fulfilled

Quick one: "O=C1NC(=S)S/C1=C\c1cc2cncc(C(=O)NCc3ccc(Cl)cc3)c2o1"
not fulfilled
